// data source = PubChem BioAssay (NCI)

# Test system: HT29 colon
# assay_summary: NCI-60 one-dose screen, 48 h (100 = growth as untreated, 0 = no growth, -100 = all killed)
# particulars: 10 µM unless noted
The panel holds about 83,000 compounds, 20% with a hit somewhere; the sample as a whole holds those more often.
recorded_metric: growth (%)
API: value field is a number in %; no unit string.

Use these answered entries as a reference point.
compound	growth (%)
O=C(CCCN1CCC(O)(c2ccc(Br)cc2)CC1)c1ccc(F)cc1	22.1
CCC1=CC2CN(C1)Cc1c([nH]c3ccccc13)[C@@](C(=O)OC)(c1cc3c(cc1OC)N(C)[C@H]1[C@@](O)(C(=O)OC)[C@H](OC(C)=O)[C@]4(CC)C=CCN5CC[C@]31[C@@H]54)C2 (stereo partly specified)	2.55
CCS(=O)(=O)Nc1cccc(Nc2c3cccc(C)c3nc3c(C)cccc23)c1OC	11.3

Incoming: growth for COc1ccc(/C(C)=N/NC(=O)CSc2nc3ccccc3c(=O)n2CCc2ccc(S(N)(=O)=O)cc2)cc1 ?
Outgoing: -10

Incoming: Now give it for COc1ccc(/C=C/C(=O)CCC(=O)O)cc1OC too.
Outgoing: 101
